Origin of the recorded values: patent US20170355757A1

Recorded 100 nM Human C5 Bound (RU) for the following binders
- test_system: T1, Human C5 (human, UniProt P01031 19-1676)
- T1 construct: The natural protein has a beta and an alpha chain; also called complement factor 5; complement component 5
- protocol: SPR, mAb captured by anti-hFc, 25C
observed_property: 100 nM Human C5 Bound (RU)

binder="H4H12166P2 (antibody, human IgG4, V domains shown, human IgG4 Fc with S108P hinge mutation) VH: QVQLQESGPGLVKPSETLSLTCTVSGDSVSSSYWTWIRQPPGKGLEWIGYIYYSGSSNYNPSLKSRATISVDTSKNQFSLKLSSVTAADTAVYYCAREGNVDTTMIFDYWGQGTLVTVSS VL: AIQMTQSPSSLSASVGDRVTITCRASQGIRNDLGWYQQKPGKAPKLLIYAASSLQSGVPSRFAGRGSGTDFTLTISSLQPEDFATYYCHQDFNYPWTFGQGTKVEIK" units_of_measure=RU data_value=95
binder="H4H11683N (antibody, human IgG4, V domains shown, also called H2M11683N) VH: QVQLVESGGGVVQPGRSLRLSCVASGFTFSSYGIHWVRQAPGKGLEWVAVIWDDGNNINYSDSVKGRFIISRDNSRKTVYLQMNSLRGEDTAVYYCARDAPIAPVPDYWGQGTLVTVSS VL: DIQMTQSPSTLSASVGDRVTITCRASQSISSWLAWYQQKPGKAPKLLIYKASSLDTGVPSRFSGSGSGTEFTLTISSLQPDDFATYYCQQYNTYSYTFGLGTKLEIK" units_of_measure=RU data_value=439
binder="H4H12159P (antibody, human IgG4, V domains shown) VH: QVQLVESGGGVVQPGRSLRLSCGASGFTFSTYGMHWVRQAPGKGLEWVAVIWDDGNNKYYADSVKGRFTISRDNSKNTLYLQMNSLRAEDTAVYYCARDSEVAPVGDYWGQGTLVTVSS VL: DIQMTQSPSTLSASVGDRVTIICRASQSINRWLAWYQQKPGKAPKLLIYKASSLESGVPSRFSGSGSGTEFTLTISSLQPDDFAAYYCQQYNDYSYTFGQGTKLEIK" units_of_measure=RU data_value=118
